# run-description: Reversal of multidrug resistance in human MCF7/DX cells assessed as potentiation doxorubicin-induced cytotoxicity by measuring reduction in doxorubicin IC50 level at 30 uM incubated for 48 hrs by MTT assay relative to untreated control
# Assay type: functional
Kindly supply the reported fold change (FC) values for the records listed here.
Answers are plain numbers.

Below: 3 compounds and their reported fold change (FC).
> print(dat)
                                  structure  reported.property  meas.value
1  C=C[C@]1(CCC=C(C)C)C[C@@H](CC(C)C)C2=C(O1)C(C)(C)C(=O)C(C)(C)C2=O   fold change (FC)         7.4
2  C=C[C@@]1(CCC=C(C)C)C[C@@H](CC(C)C)C2=C(O1)C(C)(C)C(=O)C(C)(C)C2=O   fold change (FC)         4.7
3  CC(C)C[C@H]1C[C@@]2(CC[C@]3(C(C)C)C[C@H]23)OC2=C1C(=O)C(C)(C)C(=O)C2(C)C   fold change (FC)           1

Here are 2 compounds. What values of fold change (FC) were reported for them?
1. C=C[C@]1(CCC=C(C)C)C[C@H](CC(C)C)C2=C(O1)C(C)(C)C(=O)C(C)(C)C2=O
2. Cc1ccc2c(c1)[C@H](C(C)C)CC[C@]21C[C@H](CC(C)C)C2=C(O1)C(C)(C)C(=O)C(C)(C)C2=O

1. 16.5
2. 0.9
